Values from the supplement of paper PMC10567573

protocol_details: protein stability index of a GFP-peptide fusion (GPS, HEK-293T) (PSI 1-6); higher = more stable;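 further: 24-mer peptide tiles fused after GFP, lentivirally expressed, FACS-sorted into six equal bins by GFP/DsRed ratio, decoded by Illumina sequencing, PSI is the read-weighted mean bin number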
stated_conditions: treatment: MLN4924 1 uM, 8 h; c terminus: a fixed tail appended
property_measured: protein stability index

seq_text	protein stability index
NRVVVSGLPPSGSWQDLKDHMREA [SRSF1]	4.03
NDTYRTDLCLLYPPFMIALACLHV [CCNC]	2.97
MDIKNSPSSLNSPSSYNCSQSILP [ESR2]	3.93

Please turn your attention to the following entry.
IN: Item SRFRKAYKPEQPLVRLRGGAYIGE [LOXL2] has what recorded protein stability index?
OUT: 2.98

====

The entries below are paired with their reported protein stability index.
protocol_details: protein stability index of a GFP-peptide fusion (GPS, HEK-293T) (PSI 1-6); higher = more stable
stated_conditions: treatment: MLN4924 1 uM, 8 h; c terminus: a fixed tail appended
Respond using a number only.

seq_text	protein stability index
FRVTLWVHPFVNYNSSRFGEGVER [MYORG]	2.62
AKPRLAERMTTREKKVLEAGMGKV [HDAC6]	3.98

Please turn your attention to the following entry.
IN: Item NGINGELTSADRETAEEVSARIVQ [MAP2] has what recorded protein stability index?
OUT: 5.35
